experiment: qHTS of pediatric cancer cell lines to identify multiple opportunities for drug repurposing: Confirmatory screen for OHS-50 cells (AID 1347128); details: OHS-50 osteosarcoma cells viability; series mostly up to 45.9 µM;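 note: compound exposure lasted 48 h at 37 degrees C; nearly all actives have a fitted effect of over 55% in size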
Inconclusive results are not listed. Activity calls are given as the source filed them. Calls come from the whole dose curve; as a rule, active = well fitted cell-killing curve with a large enough effect; inconclusive = small, poorly fitted or top-dose-only effect, or effect the other way; inactive = no such curve, though single readings can be large or run the other way.
Labels: active, inactive

[
  {
    "Mol": "OC[C@H]1O[C@@H](n2cnc3c2NC=NC[C@@H]3O)C[C@H]1O",
    "Assigned category": "inactive"
  },
  {
    "Mol": "O=c1[nH]cnc2c1ncn2[C@H]1CC[C@@H](CO)O1",
    "Assigned category": "inactive"
  },
  {
    "Mol": "CO[C@H]1C=CC=C(C)C(=O)NC2=CC(=O)C(NCCN(C)C)=C(C[C@@H](C)C[C@H](OC)[C@@H](O)[C@@H](C)C=C(C)[C@@H]1OC(N)=O)C2=O",
    "Assigned category": "inactive"
  },
  {
    "Mol": "NS(=O)(=O)c1cccc2c1C(=O)c1cccc(O)c1C2=O",
    "Assigned category": "active"
  }
]

###

assay: Quantitative High-Throughput drug screen in 47 multiple myeloma cell lines against the NCATS MIPE library collection: OCIMY5_PLB cell viability assay (AID 1918988); conditions: OCI-MY5 myeloma viability, ATP luminescence, 48 h; series mostly up to 45.8 µM; note: nearly all actives have a fitted effect of over 65% in size
Records with an inconclusive call do not appear. Activity calls are given as the source filed them. The call rests on the fitted dose curve; in most records, active means well fitted cell-killing curve with a large enough effect; inconclusive means small, poorly fitted or top-dose-only effect, or effect the other way; inactive means no such curve, though single readings can be large or run the other way.
Labels: 1 = active, 0 = inactive

[
  {
    "Compound": "O=c1cc(-c2ccc(O)cc2)oc2cc(O)cc(O)c12",
    "Assigned category": 1
  },
  {
    "Compound": "CC(=O)Nc1ccc([C@H](C)C(=O)Nc2ncc(C(C)C)s2)cc1",
    "Assigned category": 1
  },
  {
    "Compound": "CCCCCCCCCCCC1=C(O)C(=O)C=C(O)C1=O",
    "Assigned category": 1
  },
  {
    "Compound": "O=c1c(-c2ccc(O)cc2)coc2cc(OC3O[C@H](CO)[C@H](O)[C@H](O)[C@H]3O)cc(O)c12 (some centres not stated)",
    "Assigned category": 1
  },
  {
    "Compound": "O=C(Nc1cc(Cl)cc2c1[nH]c1cnccc12)c1cccnc1",
    "Assigned category": 1
  },
  {
    "Compound": "CC[C@@]1(O)C[C@H](O[C@H]2C[C@H](N(C)C)[C@H](O[C@H]3C[C@H](O)[C@H](O[C@H]4CCC(=O)[C@H](C)O4)[C@H](C)O3)[C@H](C)O2)c2c(cc3c(c2O)C(=O)c2c(O)cccc2C3=O)[C@@H]1C(=O)OC",
    "Assigned category": 1
  },
  {
    "Compound": "O=C(Nc1cccc(Br)c1)c1cccc(S(=O)(=O)N2CCCCCC2)c1",
    "Assigned category": 1
  },
  {
    "Compound": "COc1cc(Nc2ncc(F)c(Nc3ccc4c(n3)NC(=O)C(C)(C)O4)n2)cc(OC)c1OC",
    "Assigned category": 1
  },
  {
    "Compound": "Cc1nnc(C(C)C)n1C1C[C@H]2CC[C@@H](C1)N2CC[C@H](NC(=O)C1CCC(F)(F)CC1)c1ccccc1 (some centres not stated)",
    "Assigned category": 0
  },
  {
    "Compound": "O=C(Nc1ccccc1-c1cn2c(CN3CCNCC3)csc2n1)c1cnc2ccccc2n1",
    "Assigned category": 1
  },
  {
    "Compound": "Oc1ccc(C2CCN(c3ccnc4ccccc34)CC2)cc1O",
    "Assigned category": 1
  },
  {
    "Compound": "CO[C@H]1C=CO[C@@]2(C)Oc3c(C)c(O)c4c(O)c(c5c(c4c3C2=O)NC2(CCN(CC(C)C)CC2)N=5)=NC(=O)C(C)=CC=C[C@H](C)[C@H](O)[C@@H](C)[C@@H](O)[C@@H](C)[C@H](OC(C)=O)[C@H]1C",
    "Assigned category": 1
  },
  {
    "Compound": "CC(C)C(C)C=CC(C)C1CCC2C3=CC=C4CC(O)CCC4(C)C3CCC21C (configuration not stated)",
    "Assigned category": 1
  },
  {
    "Compound": "O=c1cc(N2CCOCC2)oc2c(-c3cccc4c3sc3ccccc34)cccc12",
    "Assigned category": 1
  },
  {
    "Compound": "O=c1[nH]cnc2c1ncn2[C@H]1CC[C@@H](CO)O1",
    "Assigned category": 0
  },
  {
    "Compound": "NS(=O)(=O)c1cccc2c1C(=O)c1cccc(O)c1C2=O",
    "Assigned category": 1
  },
  {
    "Compound": "O=C(O)C=Cc1ccc(O)c(O)c1",
    "Assigned category": 1
  }
]
